Listed here: items and their measured KD fold improvement.
Target: T1, mouse tissue factor pathway inhibitor (TFPI) (mouse, UniProt O54819 29-289, limits assumed)
T1 construct: bought; also called mTFPI; murine TFPI
T1 sequence (looked up): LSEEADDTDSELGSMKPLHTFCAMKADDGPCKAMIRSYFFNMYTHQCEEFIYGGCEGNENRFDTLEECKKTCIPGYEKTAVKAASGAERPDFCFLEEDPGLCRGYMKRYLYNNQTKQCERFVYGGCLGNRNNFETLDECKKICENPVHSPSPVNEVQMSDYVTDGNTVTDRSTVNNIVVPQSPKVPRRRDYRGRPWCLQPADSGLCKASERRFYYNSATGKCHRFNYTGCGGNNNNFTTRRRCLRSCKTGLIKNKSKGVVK
Assay: SPR, TFPI immobilized
Give the value in fold but do not write fold after it.

Example results:
In plain terms, gB9.7-IgG (4B7 HC N32D+G44S+K55Y+D62R+Y112D/LC S32R+N35I) (antibody, V domains shown, IgG format by its name) VH: QVQLQQSGPGLVKPSQTLSLTCAISGDSVSSDSAAWSWIRQSPSRGLEWLGIIYYRSKWYNRYAVSVKSRITINPDTSKNQFSLQLNSVTPEDTAVYYCARWHSDKHWGFDDWGQGTLVTVSS VL: DIVMTQSPLSLPVTPGEPASISCRSSQSLVFRDGITYLNWYLQKPGQSPQLLIYKGSNRASGVPDRFSGSGSGTDFTLKISRVEAEDVGVYYCQQYDSYPLTFGQGTKVEIKR has a documented KD fold improvement of 6250

In plain terms, B2.0 (4B7 HC N32D+D62R+Y112D/LC S32R+D33F+N35I+D97T) (Fab, V domains shown) VH: QVQLQQSGPGLVKPSQTLSLTCAISGDSVSSDSAAWSWIRQSPGRGLEWLGIIYKRSKWYNRYAVSVKSRITINPDTSKNQFSLQLNSVTPEDTAVYYCARWHSDKHWGFDDWGQGTLVTVSS VL: DIVMTQSPLSLPVTPGEPASISCRSSQSLVFRFGITYLNWYLQKPGQSPQLLIYKGSNRASGVPDRFSGSGSGTDFTLKISRVEAEDVGVYYCQQYTSYPLTFGQGTKVEIKR has a documented KD fold improvement of 1210

In plain terms, gB9.7 (4B7 HC Q1E+N32D+G44S+K55Y+D62R+Y112D/LC S32R+N35I) (Fab, V domains shown) VH: EVQLQQSGPGLVKPSQTLSLTCAISGDSVSSDSAAWSWIRQSPSRGLEWLGIIYYRSKWYNRYAVSVKSRITINPDTSKNQFSLQLNSVTPEDTAVYYCARWHSDKHWGFDDWGQGTLVTVSS VL: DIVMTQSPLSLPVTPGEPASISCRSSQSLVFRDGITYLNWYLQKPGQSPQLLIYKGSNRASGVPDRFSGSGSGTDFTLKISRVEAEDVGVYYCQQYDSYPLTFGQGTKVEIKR has a documented KD fold improvement of 275

Lab note: next binder to report on.
In plain terms, B41.2 (4B7 HC N32D+D62R+Y112D/LC S32R+D33F+N35I) (Fab, V domains shown) VH: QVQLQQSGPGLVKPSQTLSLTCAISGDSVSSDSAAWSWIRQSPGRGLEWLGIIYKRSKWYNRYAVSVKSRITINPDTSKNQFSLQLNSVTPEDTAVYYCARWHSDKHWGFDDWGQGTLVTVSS VL: DIVMTQSPLSLPVTPGEPASISCRSSQSLVFRFGITYLNWYLQKPGQSPQLLIYKGSNRASGVPDRFSGSGSGTDFTLKISRVEAEDVGVYYCQQYDSYPLTFGQGTKVEIKR has a documented KD fold improvement of 1060
